List of GI50 values.
System: SNB-75 CNS
Experiment: NCI tumour cell line growth inhibition, 48 h

{"columns": ["compound", "GI50"],
 "data": [
  ["COc1cc2cc(Oc3ccc(NC(=O)Nc4ccc(Cl)c(C(F)(F)F)c4)cc3)c(C)nc2cc1OC", "1.03 µM"],
  ["C[C@]12C3CC[C@@]4(CO)C[C@]3(CCC1[C@](C)(C(=O)O)CC[C@@H]2O)CC4=O (stereo not given in full)", "> 100 µM"],
  ["Nc1ccc2ccc(NS(=O)(=O)N3CCCCC3)cc2c1", "0.446 µM"],
  ["COc1ccc(-c2nnc(N3CCN(C(=O)CN4CCN(c5ccc(Cl)cc5)CC4)CC3)nc2-c2ccc(OC)cc2)cc1", "19.5 µM"],
  ["O=C1c2ccn(CCCCN3CCCCC3)c2C(=O)c2c1c(O)c1ccccc1c2O", "8.45 µM"]
]}
